Overview of recorded melting point for various molecules

smiles-input: COC(=O)c1cccc(NC(=O)c2ccc(OC)c(N)c2)c1
readout-name: melting point
experimental-result: 160 to 162 °C
//
smiles-input: COc1ccc(C(=O)Nc2ccccc2)cc1NS(=O)(=O)c1ccc(F)cc1F
readout-name: melting point
experimental-result: 198 to 200 °C
//
smiles-input: COc1ccc(C(=O)Nc2ccc(F)c(F)c2)cc1N
readout-name: melting point
experimental-result: 171 to 172 °C
//
smiles-input: COc1ccc(C(=O)Nc2ccccc2)cc1NS(=O)(=O)c1cccc2c(N(C)C)cccc12
readout-name: melting point
experimental-result: 231 to 232 °C
//
smiles-input: CSc1ccc(C(=O)Nc2ccccc2)cc1N
readout-name: melting point
experimental-result: 143 to 145 °C
//
smiles-input: COc1ccc(NC(=O)c2ccc(O)c(Nc3cc(Cl)cc(Cl)c3)c2)cc1O
readout-name: melting point
experimental-result: 170 to 171 °C
//
smiles-input: O=C(Nc1ccc(F)cc1)c1ccc(OC(F)(F)F)c(NC(=S)Nc2cccc(C(F)(F)F)c2)c1
readout-name: melting point
experimental-result: 153 to 154 °C
//
smiles-input: CCCCS(=O)(=O)Nc1cc(C(=O)Nc2ccccc2)ccc1OC
readout-name: melting point
experimental-result: 182 to 183 °C

Short answer for CCc1ccc(C(=O)Nc2ccc(F)c(F)c2)cc1NC(=S)Nc1cccc(C(F)(F)F)c1 : melting point was 169 to 170 °C

* * *

target: rabbit reticulocyte 15-LO (Oryctolagus cuniculus, UniProt P12530); construct: Fifteen-lipoxygenase was obtained from phenylhydrazine-treated rabbits and purified per the method of Rapoport; from tissue; host or cells: reticulocytes of phenylhydrazine-treated rabbits; experiment: Rabbit Reticulocyte 15-LO Assay (h15LO); assay type: biochemical; conditions: Table 2; 2U rabbit reticulocyte 15-LO, 174 μM linoleic acid, 15 minutes at 4° C.
readout-name: IC50 (nM)
Value expressed in nM; do not type the unit.

compound: COc1ccc(NC(=O)c2ccc(F)c(F)c2)cc1NC(=S)Nc1cccc(C(=O)O)c1 [Example 169]
IC50 / nM: 246

Field IC50 (entry COc1ccc(C(=O)Nc2ccccc2)cc1NC(=S)Nc1ccc(C(F)(F)F)cc1 [Example 63] ) reads 49

Record summary for COc1ccc(C(=O)Nc2ccccc2)cc1NCc1ccccc1F [Example 270] : reported IC50 = 241

For COc1ccc(C(=O)Nc2ccccc2)cc1NS(=O)(=O)c1cccc([N+](=O)[O-])c1 [Example 122] the compound record lists IC50 as 187

Briefly, IC50 measured for O=C(Nc1ccccc1)c1ccc(O)c(Nc2ccccc2)c1 [Example 145] : 180

* * *

# Lookup of reported IC50 keyed by entry
target: rabbit reticulocyte 15-LO (Oryctolagus cuniculus, UniProt P12530); construct: Fifteen-lipoxygenase was obtained from phenylhydrazine-treated rabbits and purified per the method of Rapoport; from tissue; host or cells: reticulocytes of phenylhydrazine-treated rabbits; assay: Rabbit Reticulocyte 15-LO Assay (h15LO); assay type: biochemical; conditions: Table 1; 2U rabbit reticulocyte 15-LO, 174 μM linoleic acid, 15 minutes at 4° C.
Could you give the number and then its unit, please?

smiles-input: CSc1ccc(C(=O)Nc2ccccc2)cc1N
system-under-test: rabbit reticulocyte 15-LO (Oryctolagus cuniculus, UniProt P12530)
experimental-result: 203 nM
--
smiles-input: COc1ccc(C(=O)Nc2ccc(F)c(F)c2)cc1N
system-under-test: rabbit reticulocyte 15-LO (Oryctolagus cuniculus, UniProt P12530)
experimental-result: 9 nM

Next item in the queue.
For this compound ( COc1ccc(C(=O)Nc2cccnc2)cc1N ), measured IC50 is 38 nM

* * *

Target: rabbit reticulocyte 15-LO (Oryctolagus cuniculus, UniProt P12530)
Construct: Fifteen-lipoxygenase was obtained from phenylhydrazine-treated rabbits and purified per the method of Rapoport; from tissue; host or cells: reticulocytes of phenylhydrazine-treated rabbits
Sequence (P12530 1-663): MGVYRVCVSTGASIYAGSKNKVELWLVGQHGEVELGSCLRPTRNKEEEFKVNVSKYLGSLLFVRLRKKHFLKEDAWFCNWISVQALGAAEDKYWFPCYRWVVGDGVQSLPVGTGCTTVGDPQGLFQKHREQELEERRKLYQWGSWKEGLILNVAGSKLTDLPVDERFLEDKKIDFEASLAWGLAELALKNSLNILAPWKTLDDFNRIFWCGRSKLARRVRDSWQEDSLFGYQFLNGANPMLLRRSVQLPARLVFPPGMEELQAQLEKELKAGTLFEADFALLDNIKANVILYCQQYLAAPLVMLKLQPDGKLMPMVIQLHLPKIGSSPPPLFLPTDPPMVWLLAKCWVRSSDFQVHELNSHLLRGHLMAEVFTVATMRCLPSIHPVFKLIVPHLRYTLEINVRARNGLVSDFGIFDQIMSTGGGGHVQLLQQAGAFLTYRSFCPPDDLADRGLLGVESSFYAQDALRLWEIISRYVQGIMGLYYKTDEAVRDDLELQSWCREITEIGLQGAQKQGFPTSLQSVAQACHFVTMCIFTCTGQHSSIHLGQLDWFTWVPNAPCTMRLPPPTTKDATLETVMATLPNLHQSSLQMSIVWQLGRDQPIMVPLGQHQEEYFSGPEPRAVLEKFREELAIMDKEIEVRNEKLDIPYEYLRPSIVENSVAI
Test: Rabbit Reticulocyte 15-LO Assay (h15LO)
Assay type: biochemical
Details: Table 1; @ 10 μM; read-out: h15LO % Inhibition at 10 μM
Threshold rule: inhibition at 10 µM greater than or equal to 60% is T; below that, F.

Completed entries (count: 5):
molecule: CCc1ccc(C(=O)Nc2ccccc2)cc1N [Example 17, 3-Amino-4-ethyl-N-phenyl-benzamide]
assigned-label: T
--
molecule: COc1ccc(C(=O)Nc2ccc(C)c(C)c2)cc1N
assigned-label: T
--
molecule: COc1ccc(C(=O)Nc2ccc(F)cc2F)cc1N
assigned-label: T
--
molecule: CCOc1ccc(C(=O)Nc2ccccc2)cc1N [Example 10, 3-Amino-4-ethoxy-N-phenyl-benzamide]
assigned-label: F
--
molecule: COc1ccc(C(=O)Nc2ccc(C)cc2)cc1N
assigned-label: T

Alright, here's another molecule for you.
**Q:** Assess whether reported inhibition at 10 µM for Nc1cc(C(=O)Nc2ccccc2)ccc1F [Example 9, 3-Amino-4-fluoro-N-phenyl-benzamide] sits at 60% or higher.
**A:** F

* * *

As shown below, each of these molecules has a reported melting point value.

Use the examples below as a reference point.
molecule: COc1ccc(C(=O)Nc2ccccc2)cc1NC(=S)Nc1cccc(C(=O)O)c1
experimental-result: 196 to 197 °C

molecule: COc1ccc(C(=O)Nc2ccccc2)cc1NC(=S)Nc1ccccc1C
experimental-result: 172 to 174 °C

molecule: COc1ccc(C(=O)Nc2ccccc2)cc1NS(=O)(=O)c1ccc(F)cc1
experimental-result: 209 to 211 °C

molecule: COc1ccc(C(=O)Nc2ccccc2)cc1NC(=S)Nc1cc(Cl)cc(Cl)c1
experimental-result: 195 to 197 °C

molecule: COc1ccc(C(=O)Nc2ccccc2)cc1NS(=O)(=O)c1cccs1
experimental-result: 180 to 183 °C

molecule: COc1ccc(C(=O)Nc2ccc(C)c(C)c2)cc1N
experimental-result: 138 to 142 °C

molecule: COc1ccc(C(=O)Nc2ccccc2)cc1Nc1cccc([N+](=O)[O-])c1
experimental-result: 220 to 221 °C

molecule: COc1ccc(C(=O)Nc2ccc(Cl)cc2)cc1N
experimental-result: 191 to 192 °C

molecule: COc1ccc(C(=O)Nc2ccccc2)cc1NC(=S)Nc1ccc(C(=O)O)cc1
experimental-result: 201 to 202 °C

molecule: COc1ccc(C(=O)Nc2ccccc2)cc1NS(=O)(=O)c1cc(Cl)cc(Cl)c1
experimental-result: 222 to 228 °C

Looking up COc1ccc(C(=O)Nc2ccc(Cl)c(Cl)c2)cc1NC(=S)Nc1ccc(S(N)(=O)=O)cc1 , I found its melting point recorded as 190 to 193 °C

// CCc1ccc(C(=O)Nc2ccccc2)cc1Nc1cccc(C(F)(F)F)c1 : melting point value = 133 to 134 °C

Entry COc1ccc(CNc2ccccc2)cc1NS(=O)(=O)c1cc(Cl)cc(Cl)c1 , melting point reported as 105 to 108 °C

Nc1cc(C(=O)Nc2ccccc2)ccc1F [Example 9, 3-Amino-4-fluoro-N-phenyl-benzamide] has a reported melting point of 167 to 170 °C

Measured melting point of COc1ccc(C(=O)Nc2cccnc2)cc1NC(=S)Nc1cccc(C(=O)O)c1 : 191 to 192 °C

What the record says about COc1ccc(C(=O)Nc2ccccc2)cc1NCc1ccc(OC)c(OC)c1 : melting point is 187 to 188 °C

The molecule identified as Cc1ccc(C(=O)Nc2ccccc2)cc1N [Example 1, 3-Amino-4-methyl-N-phenyl-benzamide] registered its melting point at 149 to 151 °C

melting point measured on COc1ccc(C(=O)Nc2ccccc2)cc1NS(=O)(=O)c1cccc2ccccc12 = 212 to 213 °C

* * *

target: rabbit reticulocyte 15-LO (Oryctolagus cuniculus, UniProt P12530); construct: Fifteen-lipoxygenase was obtained from phenylhydrazine-treated rabbits and purified per the method of Rapoport; from tissue; host or cells: reticulocytes of phenylhydrazine-treated rabbits; assay: Rabbit Reticulocyte 15-LO Assay (h15LO); assay type: biochemical; settings: Table 1; 2U rabbit reticulocyte 15-LO, 174 μM linoleic acid, 15 minutes at 4° C.
IC50 values, listed per item
Record the value in nM, omitting the unit from your answer.

molecule: CCc1ccc(C(=O)Nc2ccc(F)c(F)c2)cc1N
IC50 [nM]: 1100

Notebook: COc1ccc(NC(=O)c2ccccc2)cc1N [Example 21, N-(3-Amino-4-methoxyphenyl)-benzamide] , IC50 read as 2130

Recorded result, COc1ccc(C(=O)Nc2ccc(F)cc2)cc1N , IC50: 157

COc1ccc(C(=O)Nc2ccc(Cl)c(Cl)c2)cc1N yielded IC50 of 10

Just so you know, measured IC50 for COc1ccc(C(=O)Nc2ccc(Cl)cc2)cc1N came out at 290

Lab note: COc1ccc(C(=O)Nc2cc(C)cc(C)c2)cc1N gave IC50 of 390

The molecule listed as CCc1ccc(C(=O)Nc2ccc(Cl)c(Cl)c2)cc1N shows IC50 equal to 2510
